In this section, each of the compounds is paired with its reported Percentage of stand.
# Test system: Rhizoctonia solani
# assay_conditions: 500 ppm
Number only, in %; omit the unit.

Please give the measured Percentage of stand for this compound: CC1C2C(=O)N(c3cc(Cl)cc(Cl)c3)C(=O)C12Cl (stereo not shown)
100

---

# Test system: Rhizoctonia solani
# assay_conditions: 500 ppm
In this section, each of the compounds is paired with its reported Percentage of stand.
Number only, in %; omit the unit.

Look over these answered cases.
O=C1C2CC2(Cl)C(=O)N1c1cc(Cl)cc(Cl)c1 (stereo not drawn) [Compound 2]    100
CC12CC1(C)C(=O)N(c1cc(Cl)cc(Cl)c1)C2=O (stereo not drawn) [reference compound]    21.3

Please give the measured Percentage of stand for this compound: CC12CC1(Cl)C(=O)N(c1cc(Cl)cc(Cl)c1)C2=O (stereo not drawn) [Compound 1]
100
